Attribution: patent US5952321A

Measured kinact/KI, listed per entry.
- studyTarget: Human Polymorphonuclear Leukocyte Elastase (Homo sapiens, UniProt P08246)
- Sequence (P08246 30-267): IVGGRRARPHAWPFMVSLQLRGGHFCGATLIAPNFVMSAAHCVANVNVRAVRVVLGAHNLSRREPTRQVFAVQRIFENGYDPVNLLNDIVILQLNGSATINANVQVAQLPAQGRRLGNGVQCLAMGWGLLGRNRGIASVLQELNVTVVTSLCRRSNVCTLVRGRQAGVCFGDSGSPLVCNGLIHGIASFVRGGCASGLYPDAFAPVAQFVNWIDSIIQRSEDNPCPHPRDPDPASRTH
- testProtocol: Inhibition of human polymorphonuclear leukocyte elastase via hydrolysis of Boc-AAPAN or Boc-AAPVN
- Assay type: biochemical
- conditionSummary: pH 7.5, Table I; second order rate constant for inactivation of the enzyme; read-out: Kobs /[I]
The response must be a number in M⁻¹ s⁻¹ with no trailing unit.

Example cases with answers are listed next.
INSERT INTO results (compound, readoutname, endpointunit, valuereported) VALUES
  ('CCC[C@@H](NC(=O)N1C(=O)C(CC)(CC)[C@@H]1Oc1ccc(CNC(=O)CCN(CC)CC)cc1)c1ccc(C)cc1', 'kinact/KI', 'M⁻¹ s⁻¹', 850000),
  ('CCC[C@@H](NC(=O)N1C(=O)C(CC)(CC)[C@@H]1Oc1ccc(C(C)N(C)CCO)cc1)c1ccc(C)cc1 (stereo partly drawn)', 'kinact/KI', 'M⁻¹ s⁻¹', 770000),
  ('CCC[C@@H](NC(=O)N1C(=O)C(CC)(CC)[C@@H]1Oc1ccc(CN2CCN(C(C)=O)CC2)cc1)c1ccc(C)cc1', 'kinact/KI', 'M⁻¹ s⁻¹', 950000),
  ('CCC[C@@H](NC(=O)N1C(=O)C(CC)(CC)[C@@H]1Oc1ccc(CN2C(C)CCC2C)cc1)c1ccc(C)cc1 (stereo partly drawn)', 'kinact/KI', 'M⁻¹ s⁻¹', 670000),
  ('CCC[C@@H](NC(=O)N1C(=O)C(CC)(CC)[C@@H]1Oc1ccc(C(C)N2CCC(OC)C2)cc1)c1ccc(C)cc1 (stereo partly drawn)', 'kinact/KI', 'M⁻¹ s⁻¹', '1e+06');

The recorded kinact/KI for entry CCC[C@@H](NC(=O)N1C(=O)C(CC)(CC)[C@@H]1Oc1ccc(CN(C)CCOC(=O)N(C)C)cc1)c1ccc(C)cc1 equals 610000

The recorded kinact/KI for entry CCC[C@@H](NC(=O)N1C(=O)C(CC)(CC)[C@@H]1Oc1ccc(C(COC)N(CC)CC)cc1)c1ccc(C)cc1 (mixture of isomers) equals 1.1e+06
